Settings: in methyl acetate, 283.15 K
measured.metric: solubility (mole fraction)
Reply with just the number.

Which solubility (mole fraction) value belongs to O=C1c2ccccc2C(=O)N1O ?
0.00342

* * *

Conditions: in n-propyl acetate, 313.15 K
measured.metric: solubility (mole fraction)
Reply with just the number.

Which solubility (mole fraction) value belongs to O=C1c2ccccc2C(=O)N1O ?
0.00512

* * *

Settings: in ethyl acetate, 313.15 K
measured.metric: solubility (mole fraction)
Reply with just the number.

Which solubility (mole fraction) value belongs to O=C1c2ccccc2C(=O)N1O ?
0.0062

* * *

Conditions: in methanol, 278.15 K
measured.metric: solubility (mole fraction)

Which solubility (mole fraction) value belongs to O=C1c2ccccc2C(=O)N1O ?
0.00354
